# maps each entry to its inhibition at 10 µg/mL
Test: Antianaphylactic activity in human chopped lung treated with atopic serum isolated from patients allergic to cocksfoot pollen assessed as inhibition of antigen-induced slow-reacting substance of anaphylaxis release at 10 ug/mL after 15 mins relative to control
Format: functional
Conditions: 0.25 h

| compound | inhibition at 10 µg/mL |
| --- | --- |
| CCCCCC(=O)N(CCC)c1nc(C)co1 | 47% |
| CCCCN(C(=O)C(C)(C)C)c1nc(C)co1 | 23% |
| CN1CCC(=C2c3ccccc3CC(=O)c3sccc32)CC1 [KETOTIFEN] | 100% |
| CCCCN(C(=O)C1CCCC1)c1nc(C)co1 | 69% |

* * *

# maps each entry to its Ratio
System: Cavia porcellus
Assay: Antianaphylactic activity in ovalbumin/ovalbumin aerosol sensitized guinea pig bronchospasm model assessed as ratio of mean collapse time after pretreatment with compound in presence of mepyramine to mean collapse time of control animal at 2 x 100 mg/kg, po compound administered prior to antigen challenge by Herxheimer test
Assay type: functional
measured.attribute: Ratio

| compound | study.system | assay.value |
| --- | --- | --- |
| CCCCN(C(=O)CCC)c1nc(C)co1 | Cavia porcellus | 6.4 |
| CCCCC(=O)N(CCC)c1nc(C)co1 | Cavia porcellus | 5.8 |
| CCCCN(C(=O)C1CC1)c1nc(C)co1 | Cavia porcellus | 13.9 |
| CCCCN(C(=O)C1CCC1)c1nc(C)co1 | Cavia porcellus | 7.4 |
| CCCCCC(=O)N(CCC)c1nc(C)co1 | Cavia porcellus | 4.7 |
| CCCCN(C(=O)C(C)(C)C)c1nc(C)co1 | Cavia porcellus | 7.7 |
| CCCCN(C(=O)C(C)C)c1nc(C)co1 [ISAMOXOLE] | Cavia porcellus | 5.9 |

* * *

Test system: Cavia porcellus
Assay: Antianaphylactic activity in ovalbumin/ovalbumin aerosol sensitized guinea pig bronchospasm model assessed as ratio of mean collapse time after pretreatment with compound to mean collapse time of control animal at 2 x 100 mg/kg, po compound administered prior to antigen challenge by Herxheimer test
Type: functional
measured.attribute: Ratio

| structure | measured.attribute | assay.value |
| --- | --- | --- |
| CCCCN(C(=O)C1CC1)c1nc(C)co1 | Ratio | 12.2 |
| CCCCN(C(=O)C(C)(C)C)c1nc(C)co1 | Ratio | 4.4 |
| CCCCCC(=O)N(CCC)c1nc(C)co1 | Ratio | 1.4 |
| CCCCN(C(=O)C(C)C)c1nc(C)co1 | Ratio | 4.6 |
| CCCCC(=O)N(CCC)c1nc(C)co1 | Ratio | 0.8 |
| CCCCN(C(=O)C1CCC1)c1nc(C)co1 | Ratio | 1.5 |
| CCCCN(C(=O)CCC)c1nc(C)co1 | Ratio | 4.3 |

* * *

# maps each entry to its inhibition at 10 µg/mL
Test: Antianaphylactic activity in human chopped lung treated with atopic serum isolated from patients allergic to cocksfoot pollen assessed as inhibition of antigen-induced slow-reacting substance of anaphylaxis release at 10 ug/mL after 15 mins relative to control
Format: functional
Details: 0.25 h

| molecule | unit.tag | inhibition at 10 µg/mL |
| --- | --- | --- |
| CCCCN(C(=O)C(C)CC)c1nc(C)co1 (racemic) | % | 36 |
| CCCCCN(C(=O)C(C)C)c1nc(C)co1 | % | 47 |
| CCCCN(C(=O)CC1CCCC1)c1nc(C)co1 | % | 0 |
| CCCCN(C(=O)CCC)c1nc(C)co1 | % | 88 |
| CCCCN(C(=O)C1CC1)c1nc(C)co1 | % | 72 |
| CCCCN(C(=O)C1CCCCC1)c1nc(C)co1 | % | 26 |
| CCCCC(=O)N(CCC)c1nc(C)co1 | % | 38 |

* * *

# maps each entry to its inhibition at 10 µg/mL
Assay: Antianaphylactic activity in human chopped lung treated with atopic serum isolated from patients allergic to cocksfoot pollen assessed as inhibition of antigen-induced slow-reacting substance of anaphylaxis release at 10 ug/mL after 15 mins relative to control
Format: functional
Details: 0.25 h
measured.attribute: inhibition at 10 µg/mL (%)

| structure | unit.tag | assay.value |
| --- | --- | --- |
| CCC(=O)N(c1nc(C)co1)C(C)C | % | 0 |
| CCCCN(C(=O)C1CCC1)c1nc(C)co1 | % | 55 |
| Cc1coc(N(C(=O)C(C)C)C(C)C)n1 | % | 0 |
| CCCCN(C(=O)C(C)C)c1nc(C)c(C)o1 | % | 43 |
| CCCCN(C(=O)C(C)C)c1nc(C)co1 | % | 93 |
| CCCCCCN(C(C)=O)c1nc(C)co1 | % | 15 |
| CCCCC(=O)N(c1nc(C)co1)C(C)C | % | 0 |
